- measurement.target: T1, soluble human RGMc (human, UniProt Q6ZVN8 36-400)
- T1 construct: also called huRGMc; soluble hRGMc
- T1 sequence: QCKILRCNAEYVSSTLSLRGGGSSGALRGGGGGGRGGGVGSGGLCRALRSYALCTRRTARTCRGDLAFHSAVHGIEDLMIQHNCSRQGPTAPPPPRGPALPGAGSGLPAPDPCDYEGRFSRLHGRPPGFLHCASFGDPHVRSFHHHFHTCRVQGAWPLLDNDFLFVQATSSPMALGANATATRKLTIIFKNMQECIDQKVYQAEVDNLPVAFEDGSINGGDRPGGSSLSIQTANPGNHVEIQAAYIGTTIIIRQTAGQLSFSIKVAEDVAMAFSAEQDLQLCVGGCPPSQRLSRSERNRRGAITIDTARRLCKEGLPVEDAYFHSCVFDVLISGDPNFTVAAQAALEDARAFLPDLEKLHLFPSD
- assay.method.text: SPR (BIAcore);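 further: Anti-HJV antibodies, binding affinity to soluble human RGMc measured by BIAcore surface plasmon resonance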
experimental.readout: kon (M⁻¹ s⁻¹)
Dear colleague, please return just the value in M⁻¹ s⁻¹, with no unit written.

Reference set, count: 3
hHA-007 (antibody, human IgG1, kappa, L234A L235A, V domains shown, hIgG1 L234A, L235A, kappa) VH: EVQLVESGGGLVQPGGSLRLSCAASGFTFSNYGMNWIRQAPGKGLEWIGMIYYDSSDKHYADSVKGRFTISRDNSKNTLYLQMNSLRAEDTAVYYCAKGTTPDVWGQGTMVTVSS VL: DVVLTQSPLSLPVTLGQPASISCRSSQSLEESDGYTFLHWFQQRPGQSPRLLIYEVSNRFSGVPDRFSGSGSGTDFTLKISRVEAEDVGVYYCFQATHDPVTFGQGTKLEIKR ... 5.05e+06
hHA-010 (antibody, human IgG1, kappa, L234A L235A, V domains shown, hIgG1 L234A, L235A, kappa) VH: EVQLVESGGGLVQPGGSLRLSCAASGFTFSNYGMNWVRQAPGKGLEWIGMIYYDSSEKHYADSVKGRFTISRDNSKNTLYLQMNSLRAEDTAVYYCAKGTTPDKWGQGTMVTVSS VL: DVVLTQSPLSLPVTLGQPASISCRSSQSLEESDGYTFLEWFQQRPGQSPRLLIYEVSHRFSGVPDRFSGSGSGTDFTLKISRVEAEDVGVYYCFQATHDPLTFGQGTKLEIKR ... 9.9e+06
hHA-011 (antibody, human IgG1, kappa, L234A L235A, V domains shown, hIgG1 L234A, L235A, kappa) VH: EVQLVESGGGLVQPGGSLRLSCAASGFTFSNYGMNWVRQAPGKGLEWIGMIYYDSSEKHYADSVKGRFTISRDNSKNTLYLQMNSLRAEDTAVYYCAKGSTPDYWGQGTMVTVSS VL: DVVLTQSPLSLPVTLGQPASISCRSSQSLEDSDGGTFLEWFQQRPGQSPRLLIYDVSSRFSGVPDRFSGSGSGTDFTLKISRVEAEDVGVYYCFQATHDPLSFGQGTKLEIKR ... 5.05e+06

Item: hHA-002 (antibody, human IgG1, kappa, L234A L235A, V domains shown, hIgG1 L234A, L235A, kappa) VH: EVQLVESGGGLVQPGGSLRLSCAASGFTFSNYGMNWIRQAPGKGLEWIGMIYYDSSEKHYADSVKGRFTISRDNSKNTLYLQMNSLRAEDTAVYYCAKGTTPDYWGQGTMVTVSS VL: DVVLTQSPLSLPVTLGQPASISCRSSQSLETSDGDTFLEWFQQRPGQSPRLLIYEVSSRFSGVPDRFSGSGSGTDFTLKISRVEAEDVGVYYCMQVTHDPLTFGQGTKLEIKR | kon: 7.65e+06
